# Test system: genomic DNA purified from male human peripheral blood mononuclear cells
# test: Biochemical assay for potential off-target genomic sites cleaved by Cas9 and B2M guides
# measurement_context: number of potential off-target sites, guide concentration 64 nM
Threshold check on off-target Site_ Count: at or above 70 gives criterion met, strictly below gives criterion not met.

I'd appreciate it if you could say whether CR000453: gRNA targeting human B2M; targeting domain SEQ ID NO: 137; sgRNA SEQ ID NO: 174 (nucleic acid, listed as RNA, chemistry not given here) guide: CACAGCCCAAGAUAGUUAAGGUUUUAGAGCUAGAAAUAGCAAGUUAAAAUAAGGCUAGUCCGUUAUCAACUUGAAAAAGUGGCACCGAGUCGGUGCUUUU has off-target Site_ Count at least equal to 70.
criterion met

I'd appreciate it if you could say whether CR000443: gRNA targeting human B2M; targeting domain SEQ ID NO: 135; sgRNA SEQ ID NO: 172 (nucleic acid, listed as RNA, chemistry not given here) guide: CGCGAGCACAGCUAAGGCCAGUUUUAGAGCUAGAAAUAGCAAGUUAAAAUAAGGCUAGUCCGUUAUCAACUUGAAAAAGUGGCACCGAGUCGGUGCUUUU has off-target Site_ Count at least equal to 70.
criterion met

I'd appreciate it if you could say whether 6-HEYJA000001: gRNA targeting human B2M; targeting domain SEQ ID NO: 113; sgRNA SEQ ID NO: 164 (nucleic acid, listed as RNA, chemistry not given here) guide: GGCCGAGAUGUCUCGCUCCGGUUUUAGAGCUAGAAAUAGCAAGUUAAAAUAAGGCUAGUCCGUUAUCAACUUGAAAAAGUGGCACCGAGUCGGUGCUUUU has off-target Site_ Count at least equal to 70.
criterion not met

I'd appreciate it if you could say whether 4-CR004366: gRNA targeting human B2M; targeting domain SEQ ID NO: 111; sgRNA SEQ ID NO: 162; from Dharmacon (nucleic acid, listed as RNA, chemistry not given here, gRNA targeting human B2M; from Dharmacon) guide: CAGUAAGUCAACUUCAAUGUGUUUUAGAGCUAGAAAUAGCAAGUUAAAAUAAGGCUAGUCCGUUAUCAACUUGAAAAAGUGGCACCGAGUCGGUGCUUUU has off-target Site_ Count at least equal to 70.
criterion met

I'd appreciate it if you could say whether CR000456: gRNA targeting human B2M; targeting domain SEQ ID NO: 139; sgRNA SEQ ID NO: 176 (nucleic acid, listed as RNA, chemistry not given here) guide: CUUACCCCACUUAACUAUCUGUUUUAGAGCUAGAAAUAGCAAGUUAAAAUAAGGCUAGUCCGUUAUCAACUUGAAAAAGUGGCACCGAGUCGGUGCUUUU has off-target Site_ Count at least equal to 70.
criterion not met

I'd appreciate it if you could say whether 9-HEYJA000005: gRNA targeting human B2M; targeting domain SEQ ID NO: 116; sgRNA SEQ ID NO: 167 (nucleic acid, listed as RNA, chemistry not given here) guide: UCACGUCAUCCAGCAGAGAAGUUUUAGAGCUAGAAAUAGCAAGUUAAAAUAAGGCUAGUCCGUUAUCAACUUGAAAAAGUGGCACCGAGUCGGUGCUUUU has off-target Site_ Count at least equal to 70.
criterion not met

I'd appreciate it if you could say whether CR000442: gRNA targeting human B2M; targeting domain SEQ ID NO: 134; sgRNA SEQ ID NO: 171 (nucleic acid, listed as RNA, chemistry not given here) guide: GGCCACGGAGCGAGACAUCUGUUUUAGAGCUAGAAAUAGCAAGUUAAAAUAAGGCUAGUCCGUUAUCAACUUGAAAAAGUGGCACCGAGUCGGUGCUUUU has off-target Site_ Count at least equal to 70.
criterion not met

I'd appreciate it if you could say whether CR000446: gRNA targeting human B2M; targeting domain SEQ ID NO: 136; sgRNA SEQ ID NO: 173 (nucleic acid, listed as RNA, chemistry not given here) guide: AGGGUAGGAGAGACUCACGCGUUUUAGAGCUAGAAAUAGCAAGUUAAAAUAAGGCUAGUCCGUUAUCAACUUGAAAAAGUGGCACCGAGUCGGUGCUUUU has off-target Site_ Count at least equal to 70.
criterion met

I'd appreciate it if you could say whether 8-HEYJA000004: gRNA targeting human B2M; targeting domain SEQ ID NO: 115; sgRNA SEQ ID NO: 166 (nucleic acid, listed as RNA, chemistry not given here) guide: ACUCACGCUGGAUAGCCUCCGUUUUAGAGCUAGAAAUAGCAAGUUAAAAUAAGGCUAGUCCGUUAUCAACUUGAAAAAGUGGCACCGAGUCGGUGCUUUU has off-target Site_ Count at least equal to 70.
criterion not met

I'd appreciate it if you could say whether CR000455: gRNA targeting human B2M; targeting domain SEQ ID NO: 138; sgRNA SEQ ID NO: 175 (nucleic acid, listed as RNA, chemistry not given here) guide: UUACCCCACUUAACUAUCUUGUUUUAGAGCUAGAAAUAGCAAGUUAAAAUAAGGCUAGUCCGUUAUCAACUUGAAAAAGUGGCACCGAGUCGGUGCUUUU has off-target Site_ Count at least equal to 70.
criterion not met

Source: patent US20230348852A1
